# target-of-assay: Histamine H3 receptor (Rattus norvegicus)
# Sequence (Q9QYN8 whole entry): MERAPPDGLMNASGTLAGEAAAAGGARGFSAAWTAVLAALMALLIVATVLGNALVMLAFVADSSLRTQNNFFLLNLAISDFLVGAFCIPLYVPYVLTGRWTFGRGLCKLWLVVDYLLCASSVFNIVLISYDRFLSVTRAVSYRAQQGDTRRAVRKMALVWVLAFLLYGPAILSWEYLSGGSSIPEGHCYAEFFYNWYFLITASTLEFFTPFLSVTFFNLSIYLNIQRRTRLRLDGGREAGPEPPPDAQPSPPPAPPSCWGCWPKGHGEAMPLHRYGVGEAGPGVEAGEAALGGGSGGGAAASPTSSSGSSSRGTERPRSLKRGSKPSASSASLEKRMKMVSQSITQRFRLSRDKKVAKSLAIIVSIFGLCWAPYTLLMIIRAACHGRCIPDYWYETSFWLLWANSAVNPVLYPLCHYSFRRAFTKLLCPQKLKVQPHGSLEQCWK
# protocol-notes: Binding affinity at rat cortical Histamine 3 receptor
assay-endpoint: Ki (nM)
Answers are plain numbers, in nM.

smiles-code: N#Cc1ccc(-c2ccc(OCCCN3CC[C@H](O)C3)cc2)cc1
Ki [nM]: 126
--
smiles-code: CCOC(=O)N1CCN(CCCOc2ccc(-c3ccc([N+](=O)[O-])cc3)cc2)CC1
Ki [nM]: 97.7
--
smiles-code: CCOC(=O)N1CCN(CCCOc2ccc(-c3ccc(Cl)cc3)cc2)CC1
Ki [nM]: 191
--
smiles-code: N#Cc1ccc(-c2ccc(OCCCN3CCCC3)cc2)cc1
Ki [nM]: 41.7
--
smiles-code: N#Cc1ccc(-c2ccc(OCCCN3CC[C@@H](N)C3)cc2)cc1
Ki [nM]: 63.1

Please go through the list and note Ki for each molecule.
1. N#Cc1ccc(-c2ccc(OCCCN3CCC(N)CC3)cc2)cc1
2. CCOC(=O)N1CCN(CCCOc2ccc(-c3ccccc3[N+](=O)[O-])cc2)CC1

Result:
1: 129; 2: 617
